# Tested on: Streptococcus pyogenes
# assay_explanation: Antibacterial activity against efflux-resistant Streptococcus pyogenes B0545 by agar microdilution method
# Format: functional
value_type: MIC (µg/mL)
Quick note: give the figure in µg/mL, leave out the unit.

Incoming: Request the reported MIC associated with `CC[C@H]1OC(=O)[C@H](C)C(=O)[C@H](C)[C@@H](O[C@@H]2O[C@H](C)C[C@H](N(C)C)[C@H]2O)[C@](C)(OC[C@@H](O)CN2CCN(c3ccc4c(c3F)c(=O)c(C(=O)O)cn4C3CC3)CC2)C[C@@H](C)NC(=O)[C@H](C)[C@H](O)[C@@]1(C)O`
Outgoing: 0.5

Incoming: Also need CC[C@H]1OC(=O)[C@H](C)C(=O)[C@H](C)[C@@H](O[C@@H]2O[C@H](C)C[C@H](N(C)C)[C@H]2O)[C@](C)(OCC(O)CNc2ccc3ncccc3c2)C[C@@H](C)NC(=O)[C@H](C)[C@H](O)[C@@]1(C)O (some centres undefined) , thanks.
Outgoing: 8

Incoming: Also need `CC[C@H]1OC(=O)[C@H](C)C(=O)[C@H](C)[C@@H](O[C@@H]2O[C@H](C)C[C@H](N(C)C)[C@H]2O)[C@](C)(OC/C=C/c2cnc3ccccc3c2)C[C@@H](C)C(=O)N[C@H](C)[C@H](O)[C@@]1(C)OC/C=C/c1cnc2ccccc2c1` , thanks.
Outgoing: 0.5

Incoming: Also need CC[C@H]1OC(=O)[C@H](C)C(=O)[C@H](C)[C@@H](O[C@@H]2O[C@H](C)C[C@H](N(C)C)[C@H]2O)[C@](C)(OCCCC2CNc3ccccc3C2)C[C@@H](C)NC(=O)[C@H](C)[C@H](O)[C@@]1(C)O (some centres undefined) , thanks.
Outgoing: 8
